Each recorded value in this set is attributed to patent US12139520B2.

Reported hAM1R EC50 (cAMP) values follow for various binders
Biological target: hAM1R (human, UniProt Q16602)
Assay: cell-based or functional assay
Numbered stars: 1 amine (or outer) side, 2 acyl side, 3 side chain; on linkers, the order of the positions; unused ones are H or OH. Bridge positions count the residues as written; N and C are the ends. Square brackets hold non-standard residues; d marks the D form. Ends that are not written are not given here. * marks the point of attachment. C20 diacid = O=C(O)CCCCCCCCCCCCCCCCCCC(=O)*; γGlu = O=C(O)[C@H](CCC(=O)[*:2])N[*:1]; Hyp = O=C(O)[C@@H]1C[C@@H](O)CN1; NMeI = CC[C@H](C)[C@H](NC)C(=O)O; Aad = N[C@@H](CCCC(=O)O)C(=O)O; Cit = NC(=O)NCCC[C@H](N)C(=O)O; Sar = CNCC(=O)O

{"Binder": "KCNTATCTVQRLAHQIYQFTDKDADNVAPPTNVGSNG[Hyp]-NH2 (disulfide 2-7 (inferred); ends not checked) [SEQ ID NO: 25]", "hAM1R EC50 (cAMP)": "> 5 µM"}
{"Binder": "GCRWGTCTVQ[Cit]LAHQIYQFTDKDKDNVAPRSKISPQT[Hyp]-NH2 (disulfide 2-7 (inferred); ends not checked) [SEQ ID NO: 296]", "hAM1R EC50 (cAMP)": "> 5 µM"}
{"Binder": "{C20 diacid-γGlu}-KCNTATCTVQRLAEQIYQFTDKDKANVAPPTNVGSNG[Hyp]-NH2 (disulfide 2-7 (inferred); ends not checked) [SEQ ID NO: 108]", "hAM1R EC50 (cAMP)": "> 5 µM"}
{"Binder": "GCRFGTCTVQRLAHQIYQFTDKDKDNVAPSSKISPQT[Hyp]-NH2 (disulfide 2-7 (inferred); ends not checked) [SEQ ID NO: 240]", "hAM1R EC50 (cAMP)": "> 5 µM"}
{"Binder": "GCRTGTCTVQWLAHQIYQFTDKDKDNVAPRSNVGPQG[Hyp]-NH2 (disulfide 2-7 (inferred); ends not checked) [SEQ ID NO: 342]", "hAM1R EC50 (cAMP)": "> 5 µM"}
{"Binder": "{C20 diacid-γGlu}-KCNTATCTVQRLAHQIYQFTDKNKDNVAPPTNVGSNG[Hyp]-NH2 (disulfide 2-7 (inferred); not fully specified; ends not checked) [SEQ ID NO: 91]", "hAM1R EC50 (cAMP)": "0.84 µM"}
{"Binder": "{C20 diacid-γGlu}-RCGTATCATERLA[Aad]FLQRSSF[Sar]A[NMeI]LSSTEVGSNT[Hyp]-NH2 (disulfide 2-7 (inferred); not fully specified; ends not checked) [SEQ ID NO: 76]", "hAM1R EC50 (cAMP)": "> 5 µM"}
{"Binder": "{C20 diacid-γGlu}-KCNTATCTVQRLAHQIYQFTNKDKDNVAPPTNVGSNG[Hyp]-NH2 (disulfide 2-7 (inferred); not fully specified; ends not checked) [SEQ ID NO: 82]", "hAM1R EC50 (cAMP)": "0.612 µM"}
